src = the supplement of paper PMC9112550

# Tested on: Escherichia coli TOP10
# procedure_summary: shrunken log2 fold change of peptide-encoding DNA abundance (4.5 h post-induction vs induction); higher = less antimicrobial activity (less host growth inhibition)
# stated_conditions: time post-induction: 4.5 h; library: site-saturation at positions 5, 18, 19, 20
Class class 1: shrunken log2 fold change at least -0.04. Class class 0: shrunken log2 fold change below -0.04.

[
  {
    "sequence_text": "RRIRARPPRLPRPRPRPIRDPRP",
    "tgt": "Escherichia coli TOP10",
    "label_value": "class 1"
  },
  {
    "sequence_text": "RRIRYRPPRLPRPRPRPQHLPRP",
    "tgt": "Escherichia coli TOP10",
    "label_value": "class 0"
  },
  {
    "sequence_text": "RRIRHRPPRLPRPRPRPMKSPRP",
    "tgt": "Escherichia coli TOP10",
    "label_value": "class 1"
  },
  {
    "sequence_text": "RRIRSRPPRLPRPRPRPAGSPRP",
    "tgt": "Escherichia coli TOP10",
    "label_value": "class 0"
  },
  {
    "sequence_text": "RRIRGRPPRLPRPRPRPARHPRP",
    "tgt": "Escherichia coli TOP10",
    "label_value": "class 1"
  },
  {
    "sequence_text": "RRIRRRPPRLPRPRPRPHWPPRP",
    "tgt": "Escherichia coli TOP10",
    "label_value": "class 1"
  }
]

query: Is it the case that `RRIRTRPPRLPRPRPRPWLRPRP` has shrunken log2 fold change reaching or exceeding -0.04?
result: class 0

query: Quick check: does `RRIRMRPPRLPRPRPRPFPHPRP` have shrunken log2 fold change greater than or equal to -0.04?
result: class 1

query: API: above_or_equal(metric=shrunken log2 fold change, cutoff=-0.04) for item `RRIRQRPPRLPRPRPRPLTRPRP`
result: class 1

query: # check: shrunken log2 fold change of `RRIRHRPPRLPRPRPRPRLPPRP` is greater than or equal to -0.04
result: class 1

query: Textbook exercise: given the entry `RRIRERPPRLPRPRPRPMQIPRP` , state whether its shrunken log2 fold change is greater than or equal to -0.04.
result: class 0

query: Does the sequence `RRIRGRPPRLPRPRPRPVWHPRP` have recorded shrunken log2 fold change that is -0.04 or more?
result: class 1

----------
# Test system: Escherichia coli TOP10
# procedure_summary: shrunken log2 fold change of peptide-encoding DNA abundance (4.5 h post-induction vs induction); higher = less antimicrobial activity (less host growth inhibition)
# stated_conditions: time post-induction: 4.5 h; library: site-saturation at positions 5, 18, 19, 20
observed_property: shrunken log2 fold change
Give bare numbers.

Dear reader, for each entry below, please note its shrunken log2 fold change.
1. RRIRQRPPRLPRPRPRPRHCPRP
2. RRIRARPPRLPRPRPRPINMPRP

result:
1. -0.0425
2. -0.346

# per-item lookup of shrunken log2 fold change; items listed below
1. RRIRPRPPRLPRPRPRPKWFPRP
2. RRIRGRPPRLPRPRPRPTVRPRP
3. RRIRVRPPRLPRPRPRPDYMPRP

result:
0.0432
0.452
0.0631

----------
Exercise: state measured shrunken log2 fold change for each of the sequences provided.
# System: Escherichia coli TOP10;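 note: peptides expressed intracellularly from a pBAD plasmid library in pooled LB shake-flask culture, induced with 0.3% L-arabinose, DNA abundance read by NGS, three biological replicates, DESeq2 with apeglm shrinkage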
# procedure_summary: shrunken log2 fold change of peptide-encoding DNA abundance (4.5 h post-induction vs induction); higher = less antimicrobial activity (less host growth inhibition)
# stated_conditions: time post-induction: 4.5 h; library: site-saturation at positions 5, 18, 19, 20
Numbers only.

[
  {
    "sequence_text": "RRIRWRPPRLPRPRPRPSTFPRP",
    "tgt": "Escherichia coli TOP10",
    "shrunken log2 fold change": -0.616
  },
  {
    "sequence_text": "RRIRCRPPRLPRPRPRPCYCPRP",
    "tgt": "Escherichia coli TOP10",
    "shrunken log2 fold change": -0.399
  },
  {
    "sequence_text": "RRIRERPPRLPRPRPRPTRNPRP",
    "tgt": "Escherichia coli TOP10",
    "shrunken log2 fold change": 0.22
  }
]

// each sequence listed below needs its shrunken log2 fold change
1. RRIRARPPRLPRPRPRPVHRPRP
2. RRIRERPPRLPRPRPRPKNIPRP

result:
1. -0.0852
2. -0.723

I would be grateful if you could provide shrunken log2 fold change for each of the following entries.
1. RRIRDRPPRLPRPRPRPHRKPRP
2. RRIRDRPPRLPRPRPRPYGGPRP
3. RRIRMRPPRLPRPRPRPHSGPRP
4. RRIRRRPPRLPRPRPRPLVWPRP

result:
1. 0.00895
2. -0.122
3. 0.00795
4. 0.529

For every listed record, write down its shrunken log2 fold change.
1. RRIRYRPPRLPRPRPRPENYPRP
2. RRIRHRPPRLPRPRPRPISHPRP
3. RRIRPRPPRLPRPRPRPQDHPRP
4. RRIRQRPPRLPRPRPRPGSDPRP
5. RRIRKRPPRLPRPRPRPTFFPRP
6. RRIRERPPRLPRPRPRPQGQPRP
7. RRIRGRPPRLPRPRPRPERKPRP

result:
[-0.0233, -0.0873, -0.12, 0.337, 0.368, -0.0238, 0.92]

Each sequence below has a recorded value; state its shrunken log2 fold change.
1. RRIRFRPPRLPRPRPRPQYSPRP
2. RRIRPRPPRLPRPRPRPYHWPRP
3. RRIRLRPPRLPRPRPRPAHVPRP

result:
1: -0.581; 2: -0.449; 3: 0.241

I would be grateful if you could provide shrunken log2 fold change for each of the following entries.
1. RRIRPRPPRLPRPRPRPHWYPRP
2. RRIRSRPPRLPRPRPRPIPDPRP
3. RRIRRRPPRLPRPRPRPEDNPRP

result:
1: -0.165; 2: -0.0495; 3: 0.066

Hi there! I need shrunken log2 fold change for each item below, if you can.
1. RRIRFRPPRLPRPRPRPRQEPRP
2. RRIRWRPPRLPRPRPRPIMIPRP
3. RRIRNRPPRLPRPRPRPQQGPRP
4. RRIRKRPPRLPRPRPRPNGQPRP
5. RRIRQRPPRLPRPRPRPMKRPRP
6. RRIRARPPRLPRPRPRPDHCPRP
7. RRIRQRPPRLPRPRPRPNCEPRP

result:
[0.0178, -0.28, -0.159, 0.203, -0.111, 0.063, 0.117]

Please state shrunken log2 fold change for every sequence in the list that follows.
1. RRIRFRPPRLPRPRPRPNGDPRP
2. RRIRCRPPRLPRPRPRPYVVPRP

result:
-0.131
0.0333

For each of the items listed, what is its shrunken log2 fold change?
1. RRIRARPPRLPRPRPRPNRIPRP
2. RRIRTRPPRLPRPRPRPGSGPRP
3. RRIRHRPPRLPRPRPRPRFFPRP

result:
-0.215
0.344
0.152
